# TARGET OR TEST SYSTEM: T1, Cynomolgus Monkey SIRPγ (plate-coated extracellular domain)
# T1 construct: also called Cyno SIRPγ
# T1 extracellular domain: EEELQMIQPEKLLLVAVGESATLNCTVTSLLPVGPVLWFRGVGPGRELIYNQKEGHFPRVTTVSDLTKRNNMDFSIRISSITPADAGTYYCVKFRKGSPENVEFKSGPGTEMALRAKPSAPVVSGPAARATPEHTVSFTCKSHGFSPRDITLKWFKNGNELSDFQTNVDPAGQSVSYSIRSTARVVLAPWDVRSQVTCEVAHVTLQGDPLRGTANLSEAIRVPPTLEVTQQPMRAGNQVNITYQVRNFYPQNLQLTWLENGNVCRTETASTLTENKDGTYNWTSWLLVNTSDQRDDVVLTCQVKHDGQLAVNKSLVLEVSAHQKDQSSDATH
# PROCEDURE DETAILS: ELISA, coated SIRP ECD (2 µg/mL), anti-human IgG, luminescence
QUANTITY NAME: binding result

{"columns": ["BINDER", "QUANTITY NAME", "MEASURED"],
 "data": [
  ["Antibody 62 (antibody, V domains shown) VH: QVQLVQSGAEVKKPGASVKVSCKASGGTFSNYDINWVRQAPGQGLEWMGWISAYNGNTNYAQKLQGRVTMTRDTSTSTVYMELSSLRSEDTAVYYCAAEAYGDYSLDPWGQGTLVTVSS VL: DIQMTQSPSSLSASVGDRVTITCQASQGISSYLNWYQQKPGKAPKLLIYAASSLQNGVPSRFSGSGSGTDFTLTISSLQPEDFATYYCQQSYSTPITFGQGTRLEIK", "binding result", "binds"],
  ["Antibody 67 (antibody, V domains shown) VH: QVQLVQSGAEVKKPGASVKVSCKASGYTFTNFDINWVRQAPGQGLEWMGWISAYNGHTNYAQNLQGRVTMTRDTSTSTVYMELSSLRSEDTAVYYCAQEAAAGYFDYWGQGTLVTVSS VL: DIQMTQSPSSLSASVGDRVTITCRASQDIRNDLAWYQQKPGKAPKLLIYDASNLETGVPSRFSGSGSGTDFTLTISSLQPEDFATYYCQQSYGTPYTFGQGTKLEIK", "binding result", "binds"],
  ["Antibody 64 (antibody, V domains shown) VH: QVQLVQSGAEVKKPGASVKVSCKASGYTFTSYYMHWVRQAPGQGLEWMGRINPNSGGTKYAQKFQGRVTMTRDTSTSTVYMELSSLRSEDTAVYYCARLGSAYFDLWGRGTLVTVSS VL: DIQMTQSPSSLSASVGDRVTITCRASQSVDTWLAWYQQKPGKAPKLLIYEASTLESGVPSRFSGSGSGTDFTLTISSLQPEDFATYYCQQANSFPITFGQGTRLEIK", "binding result", "binds"]
]}
